measurement target: E3 ubiquitin-protein ligase Mdm2 (Homo sapiens, UniProt Q00987)
Sequence (Q00987 whole entry): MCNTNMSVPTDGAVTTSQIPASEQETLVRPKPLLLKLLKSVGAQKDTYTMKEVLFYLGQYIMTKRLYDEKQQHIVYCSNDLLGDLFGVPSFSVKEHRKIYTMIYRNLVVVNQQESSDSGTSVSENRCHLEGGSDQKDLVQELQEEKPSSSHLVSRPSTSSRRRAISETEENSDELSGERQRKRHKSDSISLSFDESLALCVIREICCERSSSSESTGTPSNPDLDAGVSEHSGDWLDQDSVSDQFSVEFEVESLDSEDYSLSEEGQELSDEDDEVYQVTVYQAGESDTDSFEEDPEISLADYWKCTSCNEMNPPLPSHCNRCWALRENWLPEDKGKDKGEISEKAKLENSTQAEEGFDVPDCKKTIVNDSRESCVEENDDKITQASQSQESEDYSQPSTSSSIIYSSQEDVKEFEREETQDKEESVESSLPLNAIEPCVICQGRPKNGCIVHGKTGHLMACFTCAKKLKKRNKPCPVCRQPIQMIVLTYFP
property measured: pIC50
One number for each entry, as −log10 of the molar value.

Q. Reported pIC50, compound c1ccc(C(N=Nc2nc3ccccc3s2)c2ccccn2)cc1 (stereo unspecified) [NSC-333003] : ____
A. 4.60
